Let's look at some compounds and their measured TGI.
System: ACHN renal
ASSAY_SUMMARY: NCI tumour cell line growth inhibition, 48 h
RECORDED_METRIC: TGI (µM)

>>> df
                                smiles_text  measurement_units  qualifier_operator  quantitative_readout
0  CC1(C)C(=O)CCC(=O)C(C)(C)C2=CC=C(O2)C(C)(C)C(=O)CCC(=O)C(C)(C)C2=CC=C1O2                 µM                   >                   100
1                  Cc1ccc2nc3sc(=O)sc3nc2c1                 µM                   =                  28.5
2  O=C(Cc1nc2ccc(C(=O)c3ccccc3)cc2[nH]c1=O)C(=O)Nc1ccc(C(F)(F)F)cc1[N+](=O)[O-]                 µM                   >                   100
3                         O=C1C=Cc2c1csc2Br                 µM                   =                  86.5
4  O=S1CCN(Cc2ccc(-c3ccc4ncnc(Nc5ccc(OCc6ccccc6)c(F)c5)c4c3)o2)CC1                 µM                   >                    25

----------
Tested on: OVCAR-3 ovarian
ASSAY_SUMMARY: NCI tumour cell line growth inhibition, 48 h
// thresholds for TGI classes: group 1 (below 10 µM), group 2 (10 µM to below 30 µM), group 3 (30 µM or more)

>>> df
                                    molecule   assayed_system  group_label
 0  CC1=C(S(=O)c2ccc(C)cc2)CCC2(CCCCO2)O1 (configuration not stated)  OVCAR-3 ovarian      group 3
 1        CCCC(=O)n1[nH]c(=O)n(C(C)(C)C)c1=O  OVCAR-3 ovarian      group 3
 2  COc1ccc2[nH]c3c(C)c4ccnc(NCCCN(C)CCCN)c4c(C)c3c2c1  OVCAR-3 ovarian      group 1
 3  O=c1c(-c2ccc3c(c2)OCO3)coc2c(CO)c(O)ccc12  OVCAR-3 ovarian      group 1
 4  CCOC(=O)C1=C(C)NC(C)=C(C(=O)OCC)C1c1cc(Br)c(O)c(OC)c1  OVCAR-3 ovarian      group 1
 5  CC(=O)N1N=C(c2ccc3ccccc3c2O)CC1c1ccc(Cl)cc1Cl (configuration not stated)  OVCAR-3 ovarian      group 3
 6  O=C1c2cccc3cccc(c23)C(=O)N1CC#Cc1ccc2c3c(cccc13)C(=O)N(CCN1CCNCC1)C2=O  OVCAR-3 ovarian      group 2
 7  Clc1cc2nnn(C3CCCCO3)c2cc1Cl (configuration not stated)  OVCAR-3 ovarian      group 3
 8  c1cc2ccc3cc2cc1CNCCOCCNCc1ccc2ccc(cc2c1)CNCCOCCNC3  OVCAR-3 ovarian      group 3
 9  COc1ccccc1NC(=O)CC(=O)n1nc(-c2ccccc2)c(N=Nc2ccccc2[N+](=O)[O-])c1-c1ccccc1  OVCAR-3 ovarian      group 3
10           O=CN1CCN(C(=O)c2ccc(Cl)cc2)C1=S  OVCAR-3 ovarian      group 2
11  CC(C)(C)C1CCP(=O)(c2ccccc2)CC1 (configuration not stated)  OVCAR-3 ovarian      group 3
12  O=S(=O)(c1ccccc1)[C@@H]1[C@H]2C=C[C@](CS)(O2)[C@H]1S(=O)(=O)c1ccccc1  OVCAR-3 ovarian      group 3
13  N=c1oc2ccc([N+](=O)[O-])cc2cc1C(=O)Nc1ccccn1  OVCAR-3 ovarian      group 3
14           CSc1ncc2c(C#N)c3ccccn3c(=O)c2n1  OVCAR-3 ovarian      group 3
15  NC(Cn1ccc(=O)c(O)c1)C(=O)O (configuration not stated)  OVCAR-3 ovarian      group 3
16        CN(C)CCCNC(=O)c1cccc2nc3ccccc3nc12  OVCAR-3 ovarian      group 3
17  CCc1ccc(Oc2nccc(-c3c(-c4ccc(F)cc4)ncn3C3CCNCC3)n2)cc1  OVCAR-3 ovarian      group 2
18  COc1cc(-c2nccc3[nH]c(-c4cccc5[nH]ccc45)nc23)cc(OC)c1OC  OVCAR-3 ovarian      group 2
19  COc1ccc(/C=c2\sc3nnc(CCC(=O)Nc4cccc(C(F)(F)F)c4)n3c2=O)cc1  OVCAR-3 ovarian      group 3

----------
System: HCT-15 colon
ASSAY_SUMMARY: NCI tumour cell line growth inhibition, 48 h
Let's look at some molecules and their measured TGI.
RECORDED_METRIC: TGI (µM)

>>> print(df.to_string())
                                   molecule  qualifier_operator  quantitative_readout
0  Cc1ccc2c(n1)C(=O)C(Cl)=C(Nc1ccc(N3CCN(C)CC3)cc1)C2=O                   =                  3.93
1  O=c1c(-c2ccc3c(c2)OCO3)coc2c(CO)c(O)ccc12                   =                  6.46
2  Clc1ccc(/C=C/c2nc(-c3ccc(Cl)cc3)cn3c2nc2ccccc23)cc1                   >                   100
3        CN(C)CCCNC(=O)c1cccc2nc3ccccc3nc12                   >                  82.4
4  [CH3][Sn]([CH3])([CH3])[O]C(=O)C(O)c1ccccc1 (stereo not given)                   =                  19.1

----------
System: COLO 205 colon
ASSAY_SUMMARY: NCI tumour cell line growth inhibition, 48 h
RECORDED_METRIC: TGI

                                    compound    result
 0  C=C(C)C1Cc2c(cc(OC)c3c(=O)c4ccccc4n(C)c23)O1 (stereo unspecified)  > 100 µM
 1         COc1cc(CCC(=O)O)c2cc3ccccc3cc2c1O   36.2 µM
 2  Cc1ccc(S(=O)(=O)N/N=C2/C3C(CC2(C)C)C2(C)CCCC3(C)C2O)cc1 (stereo unspecified)   31.8 µM
 3  C[C@]12CC[C@H]3[C@@H](CC=C4C[C@@H](O)CC[C@@]43C)[C@@H]1C[C@H](N1CCOCC1)[C@@H]2O  > 100 µM
 4               S=C(Nc1ccc(Cl)cc1)SC1CCCCC1  > 100 µM
 5  COc1ccc(/C=c2\sc3nnc(CCC(=O)Nc4cccc(C(F)(F)F)c4)n3c2=O)cc1  > 100 µM
 6       N=C1/C(=C/c2ccccc2)C(=O)N=C2SC=NN12  > 100 µM
 7  CC(C)[Si](Oc1cc2c3c(ccc2c(O)c1[C@@H](C)CO[Si](C)(C)C(C)(C)C)C(C)(C)CCC3)(C(C)C)C(C)C  > 100 µM
 8  COC(=O)c1c2c(c(C)[n+]([O-])c1C)C(=O)C=C(NCc1ccc(Br)cc1)C2=O   1.17 µM
 9  NC(CCC(=O)NC(CSC(=O)N(O)c1ccc(Cl)cc1)C(=O)NCC(=O)O)C(=O)O (stereo unspecified)  > 0.5 µM
10  Cc1ccc(C)c(NC(=O)C(=O)CC(=O)c2cccc3ccccc23)c1  > 100 µM
11  COC1=CCC2=C(CCN(C(=O)C3CC3)C2Cc2ccc(OC)c(O)c2)C1 (stereo unspecified)  > 100 µM
12           CSc1ncc2c(C#N)c3ccccn3c(=O)c2n1  > 100 µM
13  COc1ccc(C2=NNC(c3cc(Cc4ccc(O)c(C5CC(c6ccc(OC)cc6)=NN5)c4)ccc3O)C2)cc1 (stereo unspecified)  > 100 µM
14  O=C(NCCSSCCNC(=O)/C(Cc1ccc(O)c(Br)c1)=N/O)/C(Cc1ccc(O)c(Br)c1)=N/O   6.82 µM
15                 O=C(O)CN(CC(=O)O)c1ccccc1  > 100 µM
16  CC(C)CC(NC=O)C(=O)NC(Cc1ccccc1)NC(=O)CNC(=O)C(C)NC(=O)OC(C)(C)C (stereo unspecified)  > 100 µM
17        CCCC(=O)n1[nH]c(=O)n(C(C)(C)C)c1=O  > 100 µM
18  O=[N+]([O-])c1ccc(Oc2cccc(C(F)(F)F)c2)c([N+](=O)[O-])c1   6.04 µM
19  COc1ccc(/C=N/NS(=O)(=O)c2ccc(/C=C3\NC(=O)N(C)C3=O)cc2)cc1  > 100 µM
20          Cc1cc2oc(=O)c(Cl)c(Cl)c2c(C)c1Cl   8.09 µM
